Tested on: HOP-62 multicell spheroids with HUVEC/MSC, viability
assay overview: Anticancer human tumor HOP-62 cell line growth inhibition [KRAS2];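 note: viability read after a week of compound exposure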
test settings: curve of first compound; second compound 0.0316 µM
measured quantity: IC50 (µM)
Please reply with the bare figure in µM and do not write the unit itself.

Data request, read-out IC50, for O=C(c1cc(Cc2n[nH]c(=O)c3ccccc23)ccc1F)N1CCN(C(=O)C2CC2)CC1 + C=CC(=O)N1CCN(c2nc(OCC3CCCN3C)nc3c2CCN(c2cccc4cccc(C)c24)C3)CC1CC#N
0.693

Which IC50 is listed for CC(C)NCC(C(=O)N1CCN(c2ncnc3c2C(C)CC3O)CC1)c1ccc(Cl)cc1 (stereo not given) + C=CC(=O)N1CCN(c2nc(OCC3CCCN3C)nc3c2CCN(c2cccc4cccc(C)c24)C3)CC1CC#N ?
0.173

Would you kindly share the measured IC50 for CC1COCCN1c1cc(-c2ccnn2C)c2ccnc(-c3ccn[nH]3)c2n1 (stereo not given) + C=CC(=O)N1CCN(c2nc(OCC3CCCN3C)nc3c2CCN(c2cccc4cccc(C)c24)C3)CC1CC#N ?
0.0399
